All values here come from PubChem BioAssay (NCI).

# Test system: NCI-H522 lung
# Test name: NCI-60 one-dose screen, 48 h (100 = growth as untreated, 0 = no growth, -100 = all killed)
# Test context: 10 µM unless noted
Compounds without any hit were thinned out: in the full panel of roughly 83,000, 20% have a hit.
Please note: true applies when growth is -60% or greater, and false applies otherwise.

Answered cases to consult:
[[record]]
compound = "CCC1(O)CC(OC2CC(N(C)C)C(OC3CC4OC5CC(=O)C(C)OC5OC4C(C)O3)C(C)O2)c2c(cc3c(c2O)C(=O)c2c(O)ccc(O)c2C3=O)C1C(=O)OC (centres undefined)"
group = "false"

[[record]]
compound = "CN1CCN(c2ccc([N+](=O)[O-])c3no[n+]([O-])c23)CC1"
group = "false"

[[record]]
compound = "Cc1ccc(C(=O)OC(C(=O)O)C(OC(=O)c2ccc(C)cc2)C(=O)O)cc1 (centres undefined) (tested in a mixture with another compound)"
group = "true"

[[record]]
compound = "COC1CC(CC2CCC(C)C(C(C)C(=O)O)O2)OC2(OC(C)(C3CCC(C)(C4OC(C5OC(O)(CO)C(C)CC5C)CC4C)O3)CC2C)C1C (centres undefined)"
group = "true"


Query: Decide: is the reported value of growth for `Cc1cc(N=Nc2ccccc2C)ccc1N` equal to or greater than -60%?
Result: true

Query: API: above_or_equal(metric=growth, cutoff=-60%) for item `Oc1cc[c]([Hg][Cl])cc1`
Result: true

Query: Hi, just wondering whether `COc1ccc(OC)c(/C=C/[N+](=O)[O-])c1` shows growth of -60% or higher.
Result: false

Query: Hi team, for CC[C@@]1(O)C[C@H](OC2CC(N(C)C)C(O)C(C)O2)c2c(O)c3c(c(O)c2[C@H]1OC1CC(N(C)C)C(O)C(C)O1)C(=O)c1cccc(O)c1C3=O (some centres undefined) , is the recorded growth at or above -60%?
Result: false

Query: // inclusive: growth at least -60%? input: CCCCCCCCCCCC1CCCC(C)N1 (centres undefined)
Result: true

###

Record form. Attribute: growth. Fill in for each entry.
# Tested on: HS 578T breast
# Test name: NCI-60 one-dose screen, 48 h (100 = growth as untreated, 0 = no growth, -100 = all killed)
# Test context: 10 µM unless noted
The panel holds about 83,000 compounds, 20% with a hit somewhere; the sample as a whole holds those more often.
One number for each entry, in %.

[[record]]
molecule = "CC1=C(CO)C2=C(C)C3(CC3)[C@@](C)(O)C(=O)C2=C1"
assay_system = "HS 578T breast"
readout_label = "growth"
result_value = 8.86

[[record]]
molecule = "CC(=O)O[C@H]1C[C@@H]2OC3C=C(C)CCC3(C)[C@@]1(C)[C@@]21CO1 (stereo not given in full)"
assay_system = "HS 578T breast"
readout_label = "growth"
result_value = -6.29

[[record]]
molecule = "Oc1cc[c]([Hg][Cl])cc1"
assay_system = "HS 578T breast"
readout_label = "growth"
result_value = 85.5

[[record]]
molecule = "CC[n+]1c(-c2ccccc2)c2cc(N)ccc2c2ccc(N)cc21"
assay_system = "HS 578T breast"
readout_label = "growth"
result_value = 3.75

[[record]]
molecule = "C[C@]12CC[C@H](O)CC1=CC[C@@H]1[C@@H]2CC[C@]2(C)C(=O)CC[C@@H]12"
assay_system = "HS 578T breast"
readout_label = "growth"
result_value = 130


Quick request: growth for each listed item, please.
1. CCOC(=O)C(NC(=O)C(Cc1ccc(N(CCCl)CCCl)cc1)NC(C)=O)C(C)C (stereo not given)
2. COc1ccc(OC)c(/C=C/[N+](=O)[O-])c1
3. CCCCCCCCCCCC1CCCC(C)N1 (stereo not given)
4. Cc1ccc(C(=O)OC(C(=O)O)C(OC(=O)c2ccc(C)cc2)C(=O)O)cc1 (stereo not given) (tested in a mixture with another compound)
5. CC[C@](O)(C(=O)O)c1cc2n(c(=O)c1CO)Cc1cc3ccccc3nc1-2

Result:
[101, 4.59, 64.5, 40, 29.4]

###

For each record, write down the corresponding growth.
# Test system: RXF 393 renal
# Test name: NCI-60 one-dose screen, 48 h (100 = growth as untreated, 0 = no growth, -100 = all killed)
# Test context: 10 µM unless noted
The panel holds about 83,000 compounds, 20% with a hit somewhere; the sample as a whole holds those more often. The source made the active and inactive calls. Rule for the calls: active = growth percent below 10; inactive = the rest.

[[record]]
compound = "CCCCCCCCCCCC1CCCC(C)N1 (centres undefined)"
readout_label = "growth"
result_value = "77.7% (inactive)"

[[record]]
compound = "CC[C@@]1(O)C[C@H](OC2CC(N(C)C)C(O)C(C)O2)c2c(O)c3c(c(O)c2[C@H]1OC1CC(N(C)C)C(O)C(C)O1)C(=O)c1cccc(O)c1C3=O (some centres undefined)"
readout_label = "growth"
result_value = "0.503% (active)"

[[record]]
compound = "Oc1cc[c]([Hg][Cl])cc1"
readout_label = "growth"
result_value = "116% (inactive)"


Count: 5. Required value per item: growth.
1. CCC(=O)OC1CCn2c1nc1c2C(=O)C(C)=C(N2CC2)C1=O (centres undefined)
2. CC[C@](O)(C(=O)O)c1cc2n(c(=O)c1CO)Cc1cc3ccccc3nc1-2
3. CC[n+]1c(-c2ccccc2)c2cc(N)ccc2c2ccc(N)cc21
4. C[C@]12CC[C@H](O)CC1=CC[C@@H]1[C@@H]2CC[C@]2(C)C(=O)CC[C@@H]12
5. COC1CC(CC2CCC(C)C(C(C)C(=O)O)O2)OC2(OC(C)(C3CCC(C)(C4OC(C5OC(O)(CO)C(C)CC5C)CC4C)O3)CC2C)C1C (centres undefined)

Result:
1. -79.8% (active)
2. 9.87% (active)
3. -16.7% (active)
4. 110% (inactive)
5. 28% (inactive)

Query: Indicate its recorded growth; the compound in question is `CC1=C(CO)C2=C(C)C3(CC3)[C@@](C)(O)C(=O)C2=C1`
Result: 8.42% (active)

###

# Tested on: SF-268 CNS
# Test name: NCI-60 one-dose screen, 48 h
# Test context: 10 µM unless noted
This is part of a sample that, as a whole, favours compounds with a hit. Of some 83,000 tested, about 20% had one in any assay. Activity calls are given as the source filed them. Rule for the calls: active = growth percent below 10; inactive = the rest.
Answer with one of the outcomes given here: t for active, f for inactive

Below are worked cases with known answers.
[[record]]
compound = "COC1CC(CC2CCC(C)C(C(C)C(=O)O)O2)OC2(OC(C)(C3CCC(C)(C4OC(C5OC(O)(CO)C(C)CC5C)CC4C)O3)CC2C)C1C (stereo not drawn)"
group = "f"

[[record]]
compound = "CC[C@@]1(O)C[C@H](OC2CC(N(C)C)C(OC3CC(O)C(OC4CCC(=O)C(C)O4)C(C)O3)C(C)O2)c2c(cc3c(c2O)C(=O)c2c(O)ccc(O)c2C3=O)[C@H]1C(=O)OC (stereo partly drawn)"
group = "f"

[[record]]
compound = "Cc1c(N)nc([C@H](CC(N)=O)NC[C@H](N)C(N)=O)nc1C(=O)N[C@H](C(=O)N[C@H](C)[C@@H](O)[C@H](C)C(=O)N[C@H](C(=O)NCCc1nc(-c2nc(C(=O)NCCC[S+](C)C)cs2)cs1)[C@@H](C)O)C(OC1OC(CO)C(O)C(O)C1OC1OC(CO)C(O)C(OC(N)=O)C1O)c1cnc[nH]1 (stereo partly drawn)"
group = "f"

[[record]]
compound = "CC[n+]1c(-c2ccccc2)c2cc(N)ccc2c2ccc(N)cc21"
group = "t"

[[record]]
compound = "Cc1cc(N=Nc2ccccc2C)ccc1N"
group = "f"


Query: Hey, what did the test say about `CC1=C2C(=O)[C@H]3[C@@H](CC=C4C[C@@H](O)CC[C@@]43C)[C@@H]2CC[C@]12O[C@@H]1C[C@H](C)CN[C@H]1[C@H]2C` ?
Result: f

Query: Hi team, can someone confirm the assay call for `COc1ccc(OC)c(/C=C/[N+](=O)[O-])c1` ?
Result: f

Query: GET /call?item= CCC1(O)CC(OC2CC(N(C)C)C(OC3CC4OC5CC(=O)C(C)OC5OC4C(C)O3)C(C)O2)c2c(cc3c(c2O)C(=O)c2c(O)ccc(O)c2C3=O)C1C(=O)OC (stereo not drawn) returns the recorded outcome of this test.
Result: t

Query: Name the outcome recorded for `Oc1cc[c]([Hg][Cl])cc1` in the assay.
Result: f

Query: Assay result, entry `C[C@H]1CCC/C=C/[C@@H]2C[C@H](O)C[C@H]2[C@H](O)/C=C/C(=O)O1` — outcome?
Result: f

###

# System: HL-60(TB) leukemia
# Test name: NCI-60 one-dose screen, 48 h (100 = growth as untreated, 0 = no growth, -100 = all killed)
# Test context: 10 µM unless noted
The panel holds about 83,000 compounds, 20% with a hit somewhere; the sample as a whole holds those more often.
Please assign a class to every record based on measured growth, with ranges b0: < -40%; b1: ≥ -40% and < 50%; b2: ≥ 50%

# count of solved cases: 3
[[record]]
compound = "C[C@H]1CCC/C=C/[C@@H]2C[C@H](O)C[C@H]2[C@H](O)/C=C/C(=O)O1"
group = "b1"

[[record]]
compound = "CCCCCCCCCCCC1CCCC(C)N1 (centres undefined)"
group = "b0"

[[record]]
compound = "C[C@]12CC[C@H](O)CC1=CC[C@@H]1[C@@H]2CC[C@]2(C)C(=O)CC[C@@H]12"
group = "b2"


Query: Which band does COC1CC(CC2CCC(C)C(C(C)C(=O)O)O2)OC2(OC(C)(C3CCC(C)(C4OC(C5OC(O)(CO)C(C)CC5C)CC4C)O3)CC2C)C1C (centres undefined) fall in?
Result: b0

Query: Could you place `O=C(O)c1ccccc1.[Ag]` in its proper category? Many thanks.
Result: b2

Query: Which band does `CC[C@](O)(C(=O)O)c1cc2n(c(=O)c1CO)Cc1cc3ccccc3nc1-2` fall in?
Result: b0

Query: Which class holds `CC[n+]1c(-c2ccccc2)c2cc(N)ccc2c2ccc(N)cc21` ?
Result: b1

Query: Which bin should I file `CO[C@H](/C(C)=C/C=C/C(C)=C/c1coc(C)n1)[C@H](C)[C@H]1C[C@@H](O)[C@@]2(C)O[C@H]2/C=C/[C@@H](C)[C@@H]2C[C@@H](CC(=O)O2)C[C@H]2O[C@@H]2C(=O)O1` under?
Result: b1
